Experiment: In vitro inhibition of calcium phosphate crystallization in human plasma (spectrophotometric assay)
Type: biochemical
Conditions: 0-100 μM, 1.5 mM phosphate, 12.5 mM calcium, pH 7.4, absorbance 550 nm, slope 6-24 min, read-out: Relative Potency
Readout kind: EC50

Given the molecule NCCCCCO[C@@H]1[C@@H](OP(=O)([O-])[O-])[C@H](OCCCCCN)[C@@H](OP(=O)([O-])[O-])[C@@H](OP(=O)([O-])[O-])[C@H]1OP(=O)([O-])[O-].[Na+].[Na+].[Na+].[Na+].[Na+].[Na+].[Na+].[Na+] [Compound 14] , what is its reported EC50?
≤ 5 µM

Given the molecule O=P([O-])([O-])O[C@@H]1[C@@H](OCCCCCO)[C@H](OP(=O)([O-])[O-])[C@H](OP(=O)([O-])[O-])[C@H](OP(=O)([O-])[O-])[C@H]1OCCCCCO.[Na+].[Na+].[Na+].[Na+].[Na+].[Na+].[Na+].[Na+] [Compound 6] , what is its reported EC50?
≤ 5 µM

Given the molecule CCCCCCCCCCOC1C(OP(=O)(O)O)C(OCCCCCCCCCC)C(OP(=O)(O)O)C(OP(=O)(O)O)C1OP(=O)(O)O (stereo not shown) [Compound 2] , what is its reported EC50?
> 10 µM

Given the molecule COCCCCCO[C@@H]1[C@@H](OP(=O)([O-])[O-])[C@H](OCCCCCOC)[C@@H](OP(=O)([O-])[O-])[C@@H](OP(=O)([O-])[O-])[C@H]1OP(=O)([O-])[O-].[Na+].[Na+].[Na+].[Na+].[Na+].[Na+].[Na+].[Na+] [Compound 9] , what is its reported EC50?
≤ 5 µM

====

I'd appreciate it if you could supply EC50 values for the items below.
Assay: In vitro inhibition of calcium phosphate crystallization in human plasma (spectrophotometric assay)
Format: biochemical
Conditions: 0-100 μM, 1.5 mM phosphate, 12.5 mM calcium, pH 7.4, absorbance 550 nm, slope 6-24 min, read-out: Relative Potency
Experimental: The in vitro efficacy of the IP4-4,6 substituted derivatives (e.g., Compounds 1 to 53) of the invention on the inhibition of calcium phosphate crystallization in human plasma samples was evaluated according to a spectrophotometric assay previously described in the art (Ferrer M, et al., Sci Rep 2017; 7:6858, doi:10.1038/s41598-017-07203-x). A 96-well plate was employed. […]

Given the compound COCCCCCCn1cc(COC2C(OP(=O)(O)O)C(OCc3cn(CCCCCCOC)nn3)C(OP(=O)(O)O)C(OP(=O)(O)O)C2OP(=O)(O)O)nn1 (stereo not drawn) [Compound 33] , what is its reported EC50?
5 to 10 µM

Given the compound COCCCCCCCOC1C(OP(=O)(O)O)C(OCCCCCCCOC)C(OP(=O)(O)O)C(OP(=O)(O)O)C1OP(=O)(O)O (stereo not drawn) [Compound 11] , what is its reported EC50?
> 10 µM

Given the compound O=C(O)CCCC(=O)NCCCOC1C(OP(=O)(O)O)C(OCCCNC(=O)CCCC(=O)O)C(OP(=O)(O)O)C(OP(=O)(O)O)C1OP(=O)(O)O (stereo not drawn) [Compound 45] , what is its reported EC50?
≤ 5 µM

Given the compound O=C(NCCCCCOC1C(OP(=O)(O)O)C(OCCCCCNC(=O)c2cccs2)C(OP(=O)(O)O)C(OP(=O)(O)O)C1OP(=O)(O)O)c1cccs1 (stereo not drawn) [Compound 49] , what is its reported EC50?
5 to 10 µM

Given the compound NCCCOC1C(OP(=O)(O)O)C(OCCCN)C(OP(=O)(O)O)C(OP(=O)(O)O)C1OP(=O)(O)O (stereo not drawn) [Compound 13] , what is its reported EC50?
5 to 10 µM

Given the compound O=C(O)CCCCCCCCCCOC1C(OP(=O)(O)O)C(OCCCCCCCCCCC(=O)O)C(OP(=O)(O)O)C(OP(=O)(O)O)C1OP(=O)(O)O (stereo not drawn) [Compound 19] , what is its reported EC50?
> 10 µM

====

Test: In vitro inhibition of calcium phosphate crystallization in human plasma (spectrophotometric assay)
Type: biochemical
Conditions: 0-100 μM, 1.5 mM phosphate, 12.5 mM calcium, pH 7.4, absorbance 550 nm, slope 6-24 min, read-out: Relative Potency
pEC50: −log10 of the molar value.
Readout kind: pEC50

Given the compound O=P(O)(O)OC1C(OCCCCCC(F)(F)F)C(OP(=O)(O)O)C(OP(=O)(O)O)C(OP(=O)(O)O)C1OCCCCCC(F)(F)F (stereo not drawn) [Compound 23] , what is its reported pEC50?
< 5.00

Given the compound C#CCOC1C(OP(=O)(O)O)C(OCC#C)C(OP(=O)(O)O)C(OP(=O)(O)O)C1OP(=O)(O)O (stereo not drawn) [Compound 53] , what is its reported pEC50?
≥ 5.30

Given the compound CCCO[C@@H]1[C@@H](OP(=O)(O)O)[C@H](OCCC)[C@@H](OP(=O)(O)O)[C@@H](OP(=O)(O)O)[C@H]1OP(=O)(O)O [Compound 4] , what is its reported pEC50?
≥ 5.30

Given the compound CC(C)CCCOC1C(OP(=O)(O)O)C(OCCCC(C)C)C(OP(=O)(O)O)C(OP(=O)(O)O)C1OP(=O)(O)O (stereo not drawn) [Compound 21] , what is its reported pEC50?
< 5.00

Given the compound NC(=O)CCCOC1C(OP(=O)(O)O)C(OCCCC(N)=O)C(OP(=O)(O)O)C(OP(=O)(O)O)C1OP(=O)(O)O (stereo not drawn) [Compound 26] , what is its reported pEC50?
≥ 5.30

Given the compound COCc1cn(CCCCCOC2C(OP(=O)(O)O)C(OCCCCCn3cc(COC)nn3)C(OP(=O)(O)O)C(OP(=O)(O)O)C2OP(=O)(O)O)nn1 (stereo not drawn) [Compound 38] , what is its reported pEC50?
≥ 5.30

====

Assay: In vitro inhibition of calcium phosphate crystallization in human plasma (spectrophotometric assay)
Type: biochemical
Conditions: 0-100 μM, 1.5 mM phosphate, 12.5 mM calcium, pH 7.4, absorbance 550 nm, slope 6-24 min, read-out: Relative Potency
pEC50: −log10 of the molar value.
I'd appreciate it if you could supply pEC50 values for the items below.

Given the compound O=P(O)(O)OC1C(OCCCCCCCCCCO)C(OP(=O)(O)O)C(OP(=O)(O)O)C(OP(=O)(O)O)C1OCCCCCCCCCCO (stereo not drawn) [Compound 7] , what is its reported pEC50?
< 5.00

Given the compound NCCCCCCCCCCO[C@@H]1[C@@H](OP(=O)(O)O)[C@H](OCCCCCCCCCCN)[C@@H](OP(=O)(O)O)[C@@H](OP(=O)(O)O)[C@H]1OP(=O)(O)O [Compound 15] , what is its reported pEC50?
< 5.00

Given the compound CC(=O)NCCCCCO[C@@H]1[C@@H](OP(=O)(O)O)[C@H](OCCCCCNC(C)=O)[C@@H](OP(=O)(O)O)[C@@H](OP(=O)(O)O)[C@H]1OP(=O)(O)O [Compound 27] , what is its reported pEC50?
≥ 5.30

Given the compound COCc1cn(CCCCOC2C(OP(=O)(O)O)C(OCCCCn3cc(COC)nn3)C(OP(=O)(O)O)C(OP(=O)(O)O)C2OP(=O)(O)O)nn1 (stereo not drawn) [Compound 37] , what is its reported pEC50?
5.00 to 5.30

Given the compound O=C(O)c1cn(CCCCCCOC2C(OP(=O)(O)O)C(OCCCCCCn3cc(C(=O)O)nn3)C(OP(=O)(O)O)C(OP(=O)(O)O)C2OP(=O)(O)O)nn1 (stereo not drawn) [Compound 40] , what is its reported pEC50?
≥ 5.30

Given the compound COCCCn1cc(CO[C@@H]2[C@@H](OP(=O)(O)O)[C@H](OCc3cn(CCCOC)nn3)[C@@H](OP(=O)(O)O)[C@@H](OP(=O)(O)O)[C@H]2OP(=O)(O)O)nn1 [Compound 32] , what is its reported pEC50?
≥ 5.30

====

I'd appreciate it if you could supply EC50 values for the items below.
Experiment: In vitro inhibition of calcium phosphate crystallization in human plasma (spectrophotometric assay)
Type: biochemical
Conditions: 0-100 μM, 1.5 mM phosphate, 12.5 mM calcium, pH 7.4, absorbance 550 nm, slope 6-24 min, read-out: Relative Potency

Given the molecule COC(=O)NCCCCCOC1C(OP(=O)(O)O)C(OCCCCCNC(=O)OC)C(OP(=O)(O)O)C(OP(=O)(O)O)C1OP(=O)(O)O (stereo not drawn) [Compound 25] , what is its reported EC50?
≤ 5 µM

Given the molecule O=C([O-])CCn1cc(CO[C@@H]2[C@@H](OP(=O)([O-])[O-])[C@H](OCc3cn(CCC(=O)[O-])nn3)[C@@H](OP(=O)([O-])[O-])[C@@H](OP(=O)([O-])[O-])[C@H]2OP(=O)([O-])[O-])nn1.[Na+].[Na+].[Na+].[Na+].[Na+].[Na+].[Na+].[Na+].[Na+].[Na+] [Compound 31] , what is its reported EC50?
≤ 5 µM

Given the molecule O=P(O)(O)OC1C(OCCCCCn2cccn2)C(OP(=O)(O)O)C(OP(=O)(O)O)C(OP(=O)(O)O)C1OCCCCCn1cccn1 (stereo not drawn) [Compound 16] , what is its reported EC50?
≤ 5 µM

Given the molecule COc1ccc(CCCOC2C(OP(=O)(O)O)C(OCCCc3ccc(OC)cc3)C(OP(=O)(O)O)C(OP(=O)(O)O)C2OP(=O)(O)O)cc1 (stereo not drawn) [Compound 43] , what is its reported EC50?
5 to 10 µM

Given the molecule CCCCCCCOC1C(OP(=O)(O)O)C(OCCCCCCC)C(OP(=O)(O)O)C(OP(=O)(O)O)C1OP(=O)(O)O (stereo not drawn) [Compound 5] , what is its reported EC50?
≤ 5 µM

Given the molecule COCCCCCOC1C(OP(O)(O)=S)C(OCCCCCOC)C(OP(O)(O)=S)C(OP(O)(O)=S)C1OP(O)(O)=S (stereo not drawn) [Compound 51] , what is its reported EC50?
> 10 µM

Given the molecule CCCCCCCCCCCCCCO[C@@H]1[C@@H](OP(=O)(O)O)[C@H](OCCCCCCCCCCCCCC)[C@@H](OP(=O)(O)O)[C@@H](OP(=O)(O)O)[C@H]1OP(=O)(O)O [Compound 3] , what is its reported EC50?
≤ 5 µM

Given the molecule COCc1cn(CCCOC2C(OP(=O)(O)O)C(OCCCn3cc(COC)nn3)C(OP(=O)(O)O)C(OP(=O)(O)O)C2OP(=O)(O)O)nn1 (stereo not drawn) [Compound 36] , what is its reported EC50?
5 to 10 µM

Given the molecule CCCCCO[C@@H]1[C@@H](OP(=O)([O-])[O-])[C@H](OCCCCC)[C@@H](OP(=O)([O-])[O-])[C@@H](OP(=O)([O-])[O-])[C@H]1OP(=O)([O-])[O-].[Na+].[Na+].[Na+].[Na+].[Na+].[Na+].[Na+].[Na+] [Compound 1] , what is its reported EC50?
≤ 5 µM
